method.summary: clinical
assay.setup: human, in vivo, 18 mg, Cmax, mean ± SD
test.readout: Cmax (nM)
Answers are plain numbers, in nM.

Entry CCN1C(=O)N(c2c(F)c(OC)cc(OC)c2F)Cc2cnc3[nH]c(CN4CCOCC4)cc3c21 [Pemigatinib] has what Cmax?
431

* * *

method.summary: clinical
assay.setup: human, in vivo, 9 mg, tmax, median
test.readout: Tmax (h)
Numbers only, in h.

Entry CCN1C(=O)N(c2c(F)c(OC)cc(OC)c2F)Cc2cnc3[nH]c(CN4CCOCC4)cc3c21 [Pemigatinib] has what Tmax?
1.9

* * *

method.summary: clinical
assay.setup: human, in vivo, 18 mg, Vz/F, geometric mean (CV%)
test.readout: Vd/F (L)
One number for each entry, in L.

Entry CCN1C(=O)N(c2c(F)c(OC)cc(OC)c2F)Cc2cnc3[nH]c(CN4CCOCC4)cc3c21 [Pemigatinib] has what Vd/F?
154

* * *

method.summary: clinical
assay.setup: human, in vivo, 9 mg, Cmax, mean ± SD
test.readout: Cmax
Report as: number unit

Entry CCN1C(=O)N(c2c(F)c(OC)cc(OC)c2F)Cc2cnc3[nH]c(CN4CCOCC4)cc3c21 has what Cmax?
114 nM

* * *

method.summary: clinical
assay.setup: human, in vivo, 9 mg, AUCss,0-24h, mean ± SD
test.readout: AUC (µM·h)
Numbers only, in µM·h.

Entry CCN1C(=O)N(c2c(F)c(OC)cc(OC)c2F)Cc2cnc3[nH]c(CN4CCOCC4)cc3c21 [Pemigatinib] has what AUC?
2.54

* * *

method.summary: FIGHT-102 pemigatinib plasma/urine pharmacokinetics (noncompartmental)
assay.setup: human, in vivo, 13.5 mg, Vz/F, mean ± SD, C1D14, 13.5 mg ID or CD, n 33
test.readout: Vd/F (L)
One number for each entry, in L.

Entry CCN1C(=O)N(c2c(F)c(OC)cc(OC)c2F)Cc2cnc3[nH]c(CN4CCOCC4)cc3c21 [Pemigatinib] has what Vd/F?
258

* * *

method.summary: FIGHT-102 pemigatinib plasma/urine pharmacokinetics (noncompartmental)
assay.setup: human, in vivo, 13.5 mg, Cmax,ss, mean ± SD, C1D14, 13.5 mg ID or CD, n 33
test.readout: Cmax
Report as: number unit

Entry CCN1C(=O)N(c2c(F)c(OC)cc(OC)c2F)Cc2cnc3[nH]c(CN4CCOCC4)cc3c21 has what Cmax?
238 nM

* * *

method.summary: clinical
assay.setup: human, in vivo, 18 mg, t½, geometric mean (CV%)
test.readout: half-life (h)
Answers are plain numbers, in h.

Entry CCN1C(=O)N(c2c(F)c(OC)cc(OC)c2F)Cc2cnc3[nH]c(CN4CCOCC4)cc3c21 has what half-life?
18.9

* * *

method.summary: clinical
assay.setup: human, in vivo, 9 mg, AUC0-24h, mean ± SD
test.readout: AUC(0-t) (µM·h)
Numbers only, in µM·h.

Entry CCN1C(=O)N(c2c(F)c(OC)cc(OC)c2F)Cc2cnc3[nH]c(CN4CCOCC4)cc3c21 has what AUC(0-t)?
1.13

* * *

method.summary: clinical
assay.setup: human, in vivo, 18 mg, AUCss,0-24h, geometric mean (CV%)
test.readout: AUC (µM·h)
Numbers only, in µM·h.

Entry CCN1C(=O)N(c2c(F)c(OC)cc(OC)c2F)Cc2cnc3[nH]c(CN4CCOCC4)cc3c21 [Pemigatinib] has what AUC?
6.56

* * *

method.summary: FIGHT-102 pemigatinib plasma/urine pharmacokinetics (noncompartmental)
assay.setup: human, in vivo, 13.5 mg, t½, geometric mean (CV%), C1D14, 13.5 mg ID or CD, n 33
test.readout: half-life

Entry CCN1C(=O)N(c2c(F)c(OC)cc(OC)c2F)Cc2cnc3[nH]c(CN4CCOCC4)cc3c21 has what half-life?
13.6 h

* * *

method.summary: FIGHT-102 pemigatinib plasma/urine pharmacokinetics (noncompartmental)
assay.setup: human, in vivo, 13.5 mg, Cmax, mean ± SD, C1D1, 13.5 mg ID or CD, n 36
test.readout: Cmax
Report as: number unit

Entry CCN1C(=O)N(c2c(F)c(OC)cc(OC)c2F)Cc2cnc3[nH]c(CN4CCOCC4)cc3c21 has what Cmax?
260 nM

* * *

method.summary: clinical
assay.setup: human, in vivo, 18 mg, AUC0-24h, mean ± SD
test.readout: AUC(0-t)
Report as: number unit

Entry CCN1C(=O)N(c2c(F)c(OC)cc(OC)c2F)Cc2cnc3[nH]c(CN4CCOCC4)cc3c21 has what AUC(0-t)?
3.45 µM·h

* * *

method.summary: clinical
assay.setup: human, in vivo, 18 mg, Cmax, geometric mean (CV%)
test.readout: Cmax
Report as: number unit

Entry CCN1C(=O)N(c2c(F)c(OC)cc(OC)c2F)Cc2cnc3[nH]c(CN4CCOCC4)cc3c21 has what Cmax?
344 nM

* * *

method.summary: FIGHT-102 pemigatinib plasma/urine pharmacokinetics (noncompartmental)
assay.setup: human, in vivo, 13.5 mg, AUC0-24h, mean ± SD, C1D1, 13.5 mg ID or CD, n 36
test.readout: AUC(0-t) (µM·h)
Answers are plain numbers, in µM·h.

Entry CCN1C(=O)N(c2c(F)c(OC)cc(OC)c2F)Cc2cnc3[nH]c(CN4CCOCC4)cc3c21 [Pemigatinib] has what AUC(0-t)?
2.02

* * *

method.summary: FIGHT-102 pemigatinib plasma/urine pharmacokinetics (noncompartmental)
assay.setup: human, in vivo, 13.5 mg, AUCss,0-24h, geometric mean (CV%), C1D14, 13.5 mg ID or CD, n 33
test.readout: AUC (µM·h)
Numbers only, in µM·h.

Entry CCN1C(=O)N(c2c(F)c(OC)cc(OC)c2F)Cc2cnc3[nH]c(CN4CCOCC4)cc3c21 [Pemigatinib] has what AUC?
2.72

* * *

method.summary: FIGHT-102 pemigatinib plasma/urine pharmacokinetics (noncompartmental)
assay.setup: human, in vivo, 13.5 mg, t½, mean ± SD, C1D14, 13.5 mg ID or CD, n 33
test.readout: half-life
Report as: number unit

Entry CCN1C(=O)N(c2c(F)c(OC)cc(OC)c2F)Cc2cnc3[nH]c(CN4CCOCC4)cc3c21 has what half-life?
15.4 h

* * *

method.summary: FIGHT-102 pemigatinib plasma/urine pharmacokinetics (noncompartmental)
assay.setup: human, in vivo, 13.5 mg, Cmax, geometric mean (CV%), C1D1, 13.5 mg ID or CD, n 36
test.readout: Cmax (nM)
Numbers only, in nM.

Entry CCN1C(=O)N(c2c(F)c(OC)cc(OC)c2F)Cc2cnc3[nH]c(CN4CCOCC4)cc3c21 [Pemigatinib] has what Cmax?
216

* * *

method.summary: clinical
assay.setup: human, in vivo, 9 mg, AUClast, mean ± SD
test.readout: AUC(0-t) (µM·h)
Give bare numbers, in µM·h.

Entry CCN1C(=O)N(c2c(F)c(OC)cc(OC)c2F)Cc2cnc3[nH]c(CN4CCOCC4)cc3c21 has what AUC(0-t)?
1.12

* * *

method.summary: clinical
assay.setup: human, in vivo, 18 mg, t½, mean ± SD
test.readout: half-life (h)
Answers are plain numbers, in h.

Entry CCN1C(=O)N(c2c(F)c(OC)cc(OC)c2F)Cc2cnc3[nH]c(CN4CCOCC4)cc3c21 has what half-life?
20.7

* * *

method.summary: FIGHT-102 pemigatinib plasma/urine pharmacokinetics (noncompartmental)
assay.setup: human, in vivo, 13.5 mg, AUClast, geometric mean (CV%), C1D1, 13.5 mg ID or CD, n 36
test.readout: AUC(0-t)

Entry CCN1C(=O)N(c2c(F)c(OC)cc(OC)c2F)Cc2cnc3[nH]c(CN4CCOCC4)cc3c21 has what AUC(0-t)?
1.85 µM·h

* * *

method.summary: clinical
assay.setup: human, in vivo, 9 mg, t½, mean ± SD
test.readout: half-life

Entry CCN1C(=O)N(c2c(F)c(OC)cc(OC)c2F)Cc2cnc3[nH]c(CN4CCOCC4)cc3c21 has what half-life?
17.1 h

* * *

method.summary: clinical
assay.setup: human, in vivo, 18 mg, Vz/F, mean ± SD
test.readout: Vd/F (L)
One number for each entry, in L.

Entry CCN1C(=O)N(c2c(F)c(OC)cc(OC)c2F)Cc2cnc3[nH]c(CN4CCOCC4)cc3c21 has what Vd/F?
205

* * *

method.summary: clinical
assay.setup: human, in vivo, 18 mg, AUC0-24h, geometric mean (CV%)
test.readout: AUC(0-t)
Report as: number unit

Entry CCN1C(=O)N(c2c(F)c(OC)cc(OC)c2F)Cc2cnc3[nH]c(CN4CCOCC4)cc3c21 has what AUC(0-t)?
3.31 µM·h

* * *

method.summary: clinical
assay.setup: human, in vivo, 9 mg, AUClast, geometric mean (CV%)
test.readout: AUC(0-t) (µM·h)
Answers are plain numbers, in µM·h.

Entry CCN1C(=O)N(c2c(F)c(OC)cc(OC)c2F)Cc2cnc3[nH]c(CN4CCOCC4)cc3c21 has what AUC(0-t)?
1.12
